FYI, the data here is from patent US20240041042A1.

molecules and their reported Post-emergence action against ORYSA in %
Tested on: Oryza sativa (ORYSA)
Assay type: in vivo
Conditions: crop plant compatibility, 80 g/ha, effect in comparison to untreated controls
# number only, unit % dropped from output

Please review the following examples before continuing.
Query: Give the measured Post-emergence action against ORYSA in % of C[C@@H](Oc1nn(-c2ccccn2)c(-c2ccc(F)nc2)c1Cl)C(=O)NCC(=O)O .
Result: 0

Query: Give the measured Post-emergence action against ORYSA in % of COC(=O)CNC(=O)COc1nn(-c2cccnc2C)c(-c2cncc(F)c2)c1Br .
Result: 0

Query: Give the measured Post-emergence action against ORYSA in % of COCCOC(=O)COc1nn(-c2ncccc2C)c(-c2cncc(F)c2)c1Br .
Result: 10

Query: Give the measured Post-emergence action against ORYSA in % of O=C(O)COc1nn(-c2ccccn2)c(-c2ccc(F)nc2)c1F .
Result: 0

Query: Give the measured Post-emergence action against ORYSA in % of CCOC(=O)COc1nn(-c2ncccc2F)c(-c2ccc(F)nc2)c1C(F)(F)F .
Result: 0

Query: Give the measured Post-emergence action against ORYSA in % of COCCOC(=O)[C@@H](C)Oc1nn(-c2ncccc2F)c(-c2ccc(F)nc2)c1Br .
Result: 0

Query: Give the measured Post-emergence action against ORYSA in % of O=C(COc1nn(-c2ccccn2)c(-c2ccc(F)nc2)c1Br)NS(=O)(=O)CC(F)(F)F .
Result: 0

Query: Give the measured Post-emergence action against ORYSA in % of COCCOC(=O)COc1nn(-c2cccc(C)n2)c(-c2ccc(F)nc2)c1Br .
Result: 10

Query: Give the measured Post-emergence action against ORYSA in % of O=C(O)COc1nn(-c2ccncc2)c(-c2ccc(F)nc2)c1Br .
Result: 0

Query: Give the measured Post-emergence action against ORYSA in % of COC(=O)C(C)COC(=O)COc1nn(-c2ncccc2F)c(-c2ccc(F)nc2)c1C1CC1 (stereo not shown) .
Result: 10

More entries:
Query: Give the measured Post-emergence action against ORYSA in % of CCOC(=O)COc1nn(-c2ncccc2C)c(-c2ccc(F)nc2)c1Br .
Result: 0

Query: Give the measured Post-emergence action against ORYSA in % of COC(=O)[C@@H](C)Oc1nn(-c2ccnc(Cl)c2)c(-c2ccc(F)nc2)c1Br .
Result: 0

Query: Give the measured Post-emergence action against ORYSA in % of COCCOC(=O)COc1nn(-c2ncccc2C(F)(F)F)c(-c2cncc(F)c2)c1Br .
Result: 10

Query: Give the measured Post-emergence action against ORYSA in % of COC(=O)CCOC(=O)COc1nn(-c2ccccn2)c(-c2ccc(F)nc2)c1Cl .
Result: 0

Query: Give the measured Post-emergence action against ORYSA in % of COC(=O)[C@@H](C)Oc1nn(-c2ncccc2F)c(-c2ccc(F)nc2)c1I .
Result: 0

---

compounds and their reported Pre-emergence action against ALOMY
Tested on: Alopecurus myosuroides (ALOMY)
Assay: Pre-emergence herbicidal action against ALOMY
Assay type: in vivo
Conditions: 80 g/ha; scored visually after about 3 weeks; 100% = plants have died
# number only, unit % dropped from output

Please review the following examples before continuing.
Query: Give the measured Pre-emergence action against ALOMY of CCOC(=O)COc1nn(-c2ccccn2)c(-c2ccc(F)nc2)c1Br .
Result: 100

Query: Give the measured Pre-emergence action against ALOMY of O=C(O)COc1nn(-c2ncccc2F)c(-c2ccc(F)nc2)c1Br .
Result: 100

More entries:
Query: Give the measured Pre-emergence action against ALOMY of COC(=O)[C@@H](C)Oc1nn(-c2ccc(F)cn2)c(-c2ccc(F)nc2)c1Br .
Result: 90

Query: Give the measured Pre-emergence action against ALOMY of COC(=O)C(C)COC(=O)[C@@H](C)Oc1nn(-c2ccccn2)c(-c2cncc(F)c2)c1Br (some centres unmarked) .
Result: 90

Query: Give the measured Pre-emergence action against ALOMY of CCOC(=O)[C@@H](C)Oc1nn(-c2ccccn2)c(-c2cncc(F)c2)c1Cl .
Result: 90

Query: Give the measured Pre-emergence action against ALOMY of COC(=O)C(C)NC(=O)[C@@H](C)Oc1nn(-c2ccccn2)c(-c2cncc(F)c2)c1Cl (some centres unmarked) .
Result: 90

Query: Give the measured Pre-emergence action against ALOMY of COC(=O)[C@@H](C)Oc1nn(-c2nc(F)ccc2F)c(-c2cncc(F)c2)c1C1CC1 .
Result: 100

Query: Give the measured Pre-emergence action against ALOMY of O=C(COc1nn(-c2ccccn2)c(-c2ccc(F)nc2)c1Br)OCC1CCCO1 (centres unmarked) .
Result: 90

---

Tested on: Abutilon theophrasti (ABUTH)
Experiment: Post-emergence herbicidal action against ABUTH
Assay type: in vivo
Conditions: 320 g/ha, visual rating about 3 weeks after treatment vs untreated controls (100% = plants have died, 0% = like control plants)
Measured Property: Post-emergence action against ABUTH in % (%)
# number only, unit % dropped from output

Query: Give the measured Post-emergence action against ABUTH in % of COC(=O)COc1nn(-c2nc(F)ccc2F)c(-c2cncc(F)c2)c1Br .
Result: 80

Query: Give the measured Post-emergence action against ABUTH in % of COC(=O)COc1nn(-c2ncccc2F)c(-c2ccc(F)nc2)c1Cl .
Result: 90

Query: Give the measured Post-emergence action against ABUTH in % of COC(=O)C(C)OC(=O)C(C)Oc1nn(-c2ccccn2)c(-c2cncc(F)c2)c1Br (mixture of isomers) .
Result: 80

More entries:
Query: Give the measured Post-emergence action against ABUTH in % of C=Cc1c(OCC(=O)OCC)nn(-c2ccccn2)c1-c1ccc(F)nc1 .
Result: 80

---

System: Oryza sativa (ORYSA)
Format: in vivo
Details: crop plant compatibility, 80 g/ha, effect in comparison to untreated controls
Measured Property: Post-emergence action against ORYSA in %
Write the figure, then the unit, nothing else.

Query: Give the measured Post-emergence action against ORYSA in % of COC(=O)COc1nn(-c2ncccc2F)c(-c2cncc(F)c2)c1Br [Example I-16] .
Result: 10%

Query: Give the measured Post-emergence action against ORYSA in % of C[C@@H](Oc1nn(-c2ncccc2Cl)c(-c2ccc(F)nc2)c1Br)C(=O)O .
Result: 10%

Query: Give the measured Post-emergence action against ORYSA in % of COC(=O)[C@H](C)NC(=O)COc1nn(-c2ccnc(Cl)c2)c(-c2ccc(F)nc2)c1Br .
Result: 0%

Query: Give the measured Post-emergence action against ORYSA in % of C[C@@H](Oc1nn(-c2nc(F)ccc2F)c(-c2ccc(F)nc2)c1Br)C(=O)O .
Result: 20%

---

compounds and their reported Pre-emergence action against BRSNW in %
Tested on: Brassica napus (BRSNW)
Assay type: in vivo
Details: 80 g/ha, crop plant compatibility, in comparison to untreated controls
# number only, unit % dropped from output

Please review the following examples before continuing.
Query: Give the measured Pre-emergence action against BRSNW in % of CCOC(=O)C1CCN(C(=O)COc2nn(-c3ccccn3)c(-c3ccc(F)nc3)c2Br)CC1 .
Result: 10

Query: Give the measured Pre-emergence action against BRSNW in % of COC(=O)COc1nn(-c2nc(F)ccc2F)c(-c2ccc(F)nc2)c1C1CC1 .
Result: 20

Query: Give the measured Pre-emergence action against BRSNW in % of O=C(O)COc1nn(-c2ncccc2Cl)c(-c2ccc(F)nc2)c1Br .
Result: 20

More entries:
Query: Give the measured Pre-emergence action against BRSNW in % of CCOC(=O)COc1nn(-c2ncccc2F)c(-c2ccc(F)nc2)c1I .
Result: 0

Query: Give the measured Pre-emergence action against BRSNW in % of COC(=O)[C@@H](C)Oc1nn(-c2ccc(F)cn2)c(-c2ccc(F)nc2)c1Br .
Result: 20

Query: Give the measured Pre-emergence action against BRSNW in % of CCOC(=O)C(C)Oc1nn(-c2ccccn2)c(-c2ccc(F)nc2)c1Br (racemic) .
Result: 0

Query: Give the measured Pre-emergence action against BRSNW in % of O=C(CSc1nn(-c2ccccn2)c(-c2cncc(F)c2)c1Br)NS(=O)(=O)c1ccccc1 .
Result: 0

Query: Give the measured Pre-emergence action against BRSNW in % of O=C(COc1nn(-c2ccnc(Cl)c2)c(-c2ccc(F)nc2)c1Br)NS(=O)(=O)CC(F)(F)F .
Result: 0

---

compounds and their reported Pre-emergence action against ORYSA in %
Test system: Oryza sativa (ORYSA)
Assay type: in vivo
Settings: pre-emergence, 320 g/ha, crop plant compatibility, in comparison to untreated controls
# number only, unit % dropped from output

Please review the following examples before continuing.
Query: Give Oryza sativa (ORYSA) Pre-emergence action against ORYSA in % for O=C(O)CNC(=O)COc1nn(-c2ccnc(F)c2)c(-c2ccc(F)nc2)c1Br [III-26]
Result: 0

Query: Give Oryza sativa (ORYSA) Pre-emergence action against ORYSA in % for COC(=O)CNC(=O)COc1nn(-c2ccccn2)c(-c2ccc(F)nc2)c1C1CC1 [Example I-70]
Result: 10

Query: Give Oryza sativa (ORYSA) Pre-emergence action against ORYSA in % for COC(=O)CN(C)C(=O)COc1nn(-c2ccccn2)c(-c2ccc(F)nc2)c1Br [Example I-114]
Result: 0

More entries:
Query: Give Oryza sativa (ORYSA) Pre-emergence action against ORYSA in % for COC(=O)C=CC(C)NC(=O)COc1nn(-c2ccccn2)c(-c2ccc(F)nc2)c1Br (stereo not shown) [Example I-297]
Result: 20
